Data origin: paper PMC12122562

assay: Plasma pharmacokinetics of LMP744, non-compartmental; format: in vivo, human; conditions: human, plasma, intravenous; DL1, 6 mg/m2, n=1
OBSERVABLE: AUC(0-t)

Sample COc1cc2c3c(n(CCCNCCO)c(=O)c2cc1OC)-c1cc2c(cc1C3=O)OCO2 ; AUC(0-t) observed: 91.7 ng·h/mL

====

experiment: Plasma pharmacokinetics of LMP776, non-compartmental; assay type: in vivo, human; conditions: human, plasma, intravenous; DL3, 3 mg/m2, n=3
OBSERVABLE: AUC(0-inf) (ng·h/mL)
Give a bare numeral; the unit ng·h/mL is implied.

Sample COc1cc2c3c(n(CCCn4ccnc4)c(=O)c2cc1OC)-c1cc2c(cc1C3=O)OCO2 ; AUC(0-inf) observed: 1580

====

assay: Plasma pharmacokinetics of LMP744, non-compartmental; assay type: in vivo, human; conditions: human, plasma, intravenous; DL1, 6 mg/m2, n=1
OBSERVABLE: Tmax (h)
Give a bare numeral; the unit h is implied.

Sample COc1cc2c3c(n(CCCNCCO)c(=O)c2cc1OC)-c1cc2c(cc1C3=O)OCO2 ; Tmax observed: 1

====

test: Plasma pharmacokinetics of LMP744, non-compartmental; type: in vivo, human; conditions: human, plasma, intravenous, 48 mg/m2, DL4, 48 mg/m2, n=1; read-out: t1/2 (converted)
OBSERVABLE: half-life (h)
Give a bare numeral; the unit h is implied.

Sample COc1cc2c3c(n(CCCNCCO)c(=O)c2cc1OC)-c1cc2c(cc1C3=O)OCO2 [LMP744] ; half-life observed: 15.5

====

assay: Plasma pharmacokinetics of LMP744, non-compartmental; assay type: in vivo, human; conditions: human, plasma, intravenous; DL2, 12 mg/m2, n=1
OBSERVABLE: AUC(0-inf) (ng·h/mL)
Give a bare numeral; the unit ng·h/mL is implied.

Sample COc1cc2c3c(n(CCCNCCO)c(=O)c2cc1OC)-c1cc2c(cc1C3=O)OCO2 ; AUC(0-inf) observed: 162

====

assay: Plasma pharmacokinetics of LMP776, non-compartmental; assay type: in vivo, human; settings: human, plasma, intravenous; DL8, 16 mg/m2, n=7
OBSERVABLE: Cmax (µg/mL)
Give a bare numeral; the unit µg/mL is implied.

Sample COc1cc2c3c(n(CCCn4ccnc4)c(=O)c2cc1OC)-c1cc2c(cc1C3=O)OCO2 ; Cmax observed: 0.77

====

Assay: Plasma pharmacokinetics of LMP776, non-compartmental
Format: in vivo, human
Settings: human, plasma, intravenous; DL6, 9 mg/m2, n=2
Procedure: Blood was collected during cycle 1 in the LMP744 study on C1D1 at the end of infusion (EOI), then again at 0.25, 0.5, 1, 2, 4, and 6 h after EOI. […] Samples were analyzed using a validated LC–MS or LC–MS/MS method for each IIQ as previously described. Plasma-time data were analyzed using WinNonlin (Pharsight, Mountain View, CA). AUC values were calculated by non-compartmental analysis and end-of-infusion concentrations were measured on days 1 and 5 of cycle 1. […]
OBSERVABLE: AUC(0-inf) (ng·h/mL)
Give a bare numeral; the unit ng·h/mL is implied.

Sample COc1cc2c3c(n(CCCn4ccnc4)c(=O)c2cc1OC)-c1cc2c(cc1C3=O)OCO2 [LMP776] ; AUC(0-inf) observed: 7200

====

test: Plasma pharmacokinetics of LMP776, non-compartmental; format: in vivo, human; settings: human, plasma, intravenous, 3 mg/m2, DL3, 3 mg/m2, n=3; read-out: t1/2 (converted)
OBSERVABLE: half-life (min)
Give a bare numeral; the unit min is implied.

Sample COc1cc2c3c(n(CCCn4ccnc4)c(=O)c2cc1OC)-c1cc2c(cc1C3=O)OCO2 ; half-life observed: 816

====

assay: Plasma pharmacokinetics of LMP776, non-compartmental; assay type: in vivo, human; details: human, plasma, intravenous; DL1, 1 mg/m2, n=1
OBSERVABLE: Cmax (ng/mL)
Give a bare numeral; the unit ng/mL is implied.

Sample COc1cc2c3c(n(CCCn4ccnc4)c(=O)c2cc1OC)-c1cc2c(cc1C3=O)OCO2 [LMP776] ; Cmax observed: 46.9

====

assay: Plasma pharmacokinetics of LMP776, non-compartmental; assay type: in vivo, human; details: human, plasma, intravenous; DL6, 9 mg/m2, n=2
OBSERVABLE: Cmax (ng/mL)
Give a bare numeral; the unit ng/mL is implied.

Sample COc1cc2c3c(n(CCCn4ccnc4)c(=O)c2cc1OC)-c1cc2c(cc1C3=O)OCO2 ; Cmax observed: 296

====

test: Plasma pharmacokinetics of LMP776, non-compartmental; assay type: in vivo, human; conditions: human, plasma, intravenous; DL5, 6.75 mg/m2, n=3
OBSERVABLE: AUC(0-t) (ng·h/mL)
Give a bare numeral; the unit ng·h/mL is implied.

Sample COc1cc2c3c(n(CCCn4ccnc4)c(=O)c2cc1OC)-c1cc2c(cc1C3=O)OCO2 [LMP776] ; AUC(0-t) observed: 1980

====

assay: Plasma pharmacokinetics of LMP744, non-compartmental; assay type: in vivo, human; conditions: human, plasma, intravenous; DL7, 260 mg/m2, n=10
OBSERVABLE: AUC(0-inf) (ng·h/mL)
Give a bare numeral; the unit ng·h/mL is implied.

Sample COc1cc2c3c(n(CCCNCCO)c(=O)c2cc1OC)-c1cc2c(cc1C3=O)OCO2 ; AUC(0-inf) observed: 4100

====

assay: Plasma pharmacokinetics of LMP744, non-compartmental; type: in vivo, human; settings: human, plasma, intravenous; DL3, 24 mg/m2, n=3
OBSERVABLE: Tmax (h)
Give a bare numeral; the unit h is implied.

Sample COc1cc2c3c(n(CCCNCCO)c(=O)c2cc1OC)-c1cc2c(cc1C3=O)OCO2 [LMP744] ; Tmax observed: 1.6

====

assay: Plasma pharmacokinetics of LMP744, non-compartmental; format: in vivo, human; conditions: human, plasma, intravenous, 190 mg/m^2, patient 8, Hodgkin lymphoma; read-out: Longest drug half-life measured in this study (converted)
OBSERVABLE: half-life (min)
Give a bare numeral; the unit min is implied.

Sample COc1cc2c3c(n(CCCNCCO)c(=O)c2cc1OC)-c1cc2c(cc1C3=O)OCO2 [LMP744] ; half-life observed: 1400

====

assay: Plasma pharmacokinetics of LMP744, non-compartmental; format: in vivo, human; conditions: human, plasma, intravenous; DL2, 12 mg/m2, n=1
OBSERVABLE: Tmax (h)
Give a bare numeral; the unit h is implied.

Sample COc1cc2c3c(n(CCCNCCO)c(=O)c2cc1OC)-c1cc2c(cc1C3=O)OCO2 [LMP744] ; Tmax observed: 1

====

assay: Plasma pharmacokinetics of LMP744, non-compartmental; type: in vivo, human; details: human, plasma, intravenous, 12 mg/m2, DL2, 12 mg/m2, n=1; read-out: t1/2 (converted)
OBSERVABLE: half-life
A complete answer gives the number followed by the unit.

Sample COc1cc2c3c(n(CCCNCCO)c(=O)c2cc1OC)-c1cc2c(cc1C3=O)OCO2 ; half-life observed: 1150 min

====

experiment: Plasma pharmacokinetics of LMP776, non-compartmental; type: in vivo, human; conditions: human, plasma, intravenous; DL8, 16 mg/m2, n=7
OBSERVABLE: Tmax (h)
Give a bare numeral; the unit h is implied.

Sample COc1cc2c3c(n(CCCn4ccnc4)c(=O)c2cc1OC)-c1cc2c(cc1C3=O)OCO2 ; Tmax observed: 1.1

====

assay: Plasma pharmacokinetics of LMP776, non-compartmental; assay type: in vivo, human; conditions: human, plasma, intravenous, 1 mg/m2, DL1, 1 mg/m2, n=1; read-out: t1/2 (converted)
OBSERVABLE: half-life (h)
Give a bare numeral; the unit h is implied.

Sample COc1cc2c3c(n(CCCn4ccnc4)c(=O)c2cc1OC)-c1cc2c(cc1C3=O)OCO2 ; half-life observed: 38.6

====

test: Plasma pharmacokinetics of LMP744, non-compartmental; assay type: in vivo, human; details: human, plasma, intravenous; DL6 (MTD), 190 mg/m2, n=16
OBSERVABLE: AUC(0-inf) (ng·h/mL)
Give a bare numeral; the unit ng·h/mL is implied.

Sample COc1cc2c3c(n(CCCNCCO)c(=O)c2cc1OC)-c1cc2c(cc1C3=O)OCO2 ; AUC(0-inf) observed: 4650

====

experiment: Plasma pharmacokinetics of LMP776, non-compartmental; type: in vivo, human; conditions: human, plasma, intravenous, 6.75 mg/m2, DL5, 6.75 mg/m2, n=3; read-out: t1/2 (converted)
OBSERVABLE: half-life (h)
Give a bare numeral; the unit h is implied.

Sample COc1cc2c3c(n(CCCn4ccnc4)c(=O)c2cc1OC)-c1cc2c(cc1C3=O)OCO2 ; half-life observed: 11.5

====

experiment: Plasma pharmacokinetics of LMP744, non-compartmental; type: in vivo, human; conditions: human, plasma, intravenous; DL5, 96 mg/m2, n=1
OBSERVABLE: Tmax

Sample COc1cc2c3c(n(CCCNCCO)c(=O)c2cc1OC)-c1cc2c(cc1C3=O)OCO2 [LMP744] ; Tmax observed: 1 h
